Values of pIC50 for Endothelin receptor type B (Rattus norvegicus, UniProt P21451), collected from a number of published sources:
- TGT: Endothelin receptor type B (Rattus norvegicus, UniProt P21451)
- Sequence (P21451 whole entry): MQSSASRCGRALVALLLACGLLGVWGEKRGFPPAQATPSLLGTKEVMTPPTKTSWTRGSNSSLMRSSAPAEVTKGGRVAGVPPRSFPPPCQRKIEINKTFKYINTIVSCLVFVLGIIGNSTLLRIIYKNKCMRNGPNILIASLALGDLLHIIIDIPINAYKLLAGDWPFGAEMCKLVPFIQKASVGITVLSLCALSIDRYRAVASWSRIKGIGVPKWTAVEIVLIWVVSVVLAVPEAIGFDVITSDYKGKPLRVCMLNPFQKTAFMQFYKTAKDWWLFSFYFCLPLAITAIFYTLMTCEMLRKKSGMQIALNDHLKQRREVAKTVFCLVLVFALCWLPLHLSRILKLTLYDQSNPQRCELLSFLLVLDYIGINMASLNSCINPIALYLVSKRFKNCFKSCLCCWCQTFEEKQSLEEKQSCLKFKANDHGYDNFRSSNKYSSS
pIC50: −log10 of the molar value.
Label rule not met if pIC50 falls below 8; label rule met in every other case.

Given `O=C(O)c1c(Cc2cc3c(cc2Cl)OCO3)c(-c2ccccc2)nn1C1CCCCC1` , state whether its pIC50 is at least 8.
rule not met

Given `CC[C@H](C)[C@H](NC(=O)[C@H](CC(=O)O)NC(=O)[C@H](CC(C)C)NC(=O)[C@@H](Cc1ccccc1)NC(C)=O)C(=O)N[C@H](C(=O)N[C@@H](Cc1csc2ccccc12)C(=O)O)[C@@H](C)CC` , state whether its pIC50 is at least 8.
rule not met

Given `CC[C@H](C)[C@H](NC(=O)[C@H](CCC(=O)O)NC(=O)[C@H](CC(=O)O)NC(=O)[C@H](CC(C)C)NC(=O)[C@@H](Cc1ccccc1)NC(C)=O)C(=O)N[C@@H](Cc1c[nH]c2ccccc12)C(=O)O` , state whether its pIC50 is at least 8.
rule not met

Given Cc1ccccc1C(CCC(=O)O)Oc1cccc(OCc2ccsc2)c1 (stereo not given) , state whether its pIC50 is at least 8.
rule not met

Given Cc1ccccc1C(CCC(=O)O)Oc1cc(OCc2ccsc2)ccc1-c1cc(C(=O)O)[nH]n1 (stereo not given) , state whether its pIC50 is at least 8.
rule not met

Given `O=C(O)c1c(Cc2cc3c(cc2Cl)OCO3)c(-c2ccccc2)nn1CC12CC3CC(CC(C3)C1)C2` , state whether its pIC50 is at least 8.
rule met

Given `O=C(O)COc1ccccc1Cn1nc(-c2ccccc2)c(Cc2cc3c(cc2Cl)OCO3)c1C(=O)O` , state whether its pIC50 is at least 8.
rule met

Given `O=C(O)c1cc2c(c(Cn3nc(-c4ccccc4)c(Cc4cc5c(cc4Cl)OCO5)c3C(=O)O)c1)OCOC2` , state whether its pIC50 is at least 8.
rule not met
